meta.source: ChEMBL document CHEMBL1126745

Organism: Cavia porcellus
Assay name: In vitro inhibition of spontaneous tone of guinea pig tracheal spirals
Assay type: functional
Applied conditions: Trachea
Readout: IC50 (µM)
Numbers only here, please. The scale is µM.

Notebook: CC1(C)C=C(n2ccccc2=O)c2ccc(Br)cc2C1=O , IC50 read as 4.7

Reported IC50 for CC(=O)N(C)c1ccc2c(c1)C(n1ccccc1=O)=CC(C)(C)C2=O was 3.1

// recorded IC50 for CC1(C)C(=O)c2ccc(C#N)cc2[C@@H](Oc2ccc(=O)[nH]n2)[C@@H]1O : 2.1

In plain terms, COC1c2ccc(Br)cc2C(n2ccccc2=O)=CC1(C)C (stereo not given) has a documented IC50 of 17

For record CC1(C)C=C(n2ccccc2=O)c2cc(Cl)ccc2C1=O the listed IC50 is 1.1

Recorded result, CC1(C)C(=O)c2ccc(C#N)cc2[C@@H](NC(=O)c2ccccc2)[C@@H]1O , IC50: 1.8

The compound listed as CC1(C)C=C(n2ccccc2=O)c2cc(S(=O)(=O)c3ccccc3)ccc2C1=O shows IC50 equal to 0.5

----------
Provide the recorded log10 of IC50 for the entries that follow.
Species on record: Cavia porcellus
Assay name: In vitro inhibition of spontaneous tone of guinea pig tracheal spirals
Assay type: functional
Applied conditions: Trachea
The figures below represent log10 of IC50, where IC50 is stated in µM.

Kindly note the recorded log10 of IC50 for CC(=O)c1ccc2c(c1)C(n1ccccc1=O)=CC(C)(C)C2=O , which is 0.00

The measured log10 of IC50 associated with CCC1(CC)C=C(n2ccccc2=O)c2cc(Br)ccc2C1=O reads 0.90

log10 of IC50 measured on C=Cc1ccc2c(c1)C(n1ccccc1=O)=CC(C)(C)C2=O = 0.66

// CC1(C)C(=O)c2ccc(C#N)cc2[C@@H](NC(=O)c2ccc([N+](=O)[O-])cc2)[C@@H]1O : log10 of IC50 value = 0.90

Form field log10 of IC50, entry CC(=O)N[C@@H]1c2cc(C#N)ccc2C(=O)C(C)(C)[C@H]1O : 0.94

Short answer for CC1(C)C(=O)c2ccc(C#N)cc2[C@@H](Oc2ccccn2)[C@@H]1O : log10 of IC50 was 0.74

Lookup result for Cn1nc(O[C@@H]2c3cc(C#N)ccc3C(=O)C(C)(C)[C@H]2O)ccc1=O ; measured log10 of IC50: -0.22

So, CC1(C)C=C(n2ccccc2=O)c2cc(Cl)c(Cl)cc2C1=O ? Its log10 of IC50 was -1.00

Query COC(=O)c1ccc2c(c1)C(n1ccccc1=O)=CC(C)(C)C2=O yields log10 of IC50 of 0.93

Record CC1(C)C(=O)c2cc(Cl)c(Cl)cc2[C@@H](n2ccccc2=O)[C@@H]1O . Reported log10 of IC50: 0.70

Data point: CC1(C)C(=O)c2ccc(C(F)(F)F)cc2[C@@H](n2ccccc2=O)[C@@H]1O ; log10 of IC50 = 0.15

Note to self: log10 of IC50 recorded for CC1(C)C=C(n2ccccc2=O)c2cc(C#C[Si](C)(C)C)ccc2C1=O was 0.38

Entry under test: CC1(C)C(=O)c2ccc(C#N)cc2[C@@H](n2ccccc2=O)[C@@H]1OC=O . Its log10 of IC50 was 0.63

Field log10 of IC50 (entry COc1ccc(C(=O)N[C@@H]2c3cc(C#N)ccc3C(=O)C(C)(C)[C@H]2O)cc1 ) reads 1.09
